# System name: T1, Human CD228 protein (human, UniProt P08582 20-708, limits assumed)
# T1 construct: Recombinant protein made in CHO cells, purified over a Ni column; The printed entry begins with the leader (MRGPSG...) and ends with ten His; also called hCD228; CD228-His protein
# T1 sequence: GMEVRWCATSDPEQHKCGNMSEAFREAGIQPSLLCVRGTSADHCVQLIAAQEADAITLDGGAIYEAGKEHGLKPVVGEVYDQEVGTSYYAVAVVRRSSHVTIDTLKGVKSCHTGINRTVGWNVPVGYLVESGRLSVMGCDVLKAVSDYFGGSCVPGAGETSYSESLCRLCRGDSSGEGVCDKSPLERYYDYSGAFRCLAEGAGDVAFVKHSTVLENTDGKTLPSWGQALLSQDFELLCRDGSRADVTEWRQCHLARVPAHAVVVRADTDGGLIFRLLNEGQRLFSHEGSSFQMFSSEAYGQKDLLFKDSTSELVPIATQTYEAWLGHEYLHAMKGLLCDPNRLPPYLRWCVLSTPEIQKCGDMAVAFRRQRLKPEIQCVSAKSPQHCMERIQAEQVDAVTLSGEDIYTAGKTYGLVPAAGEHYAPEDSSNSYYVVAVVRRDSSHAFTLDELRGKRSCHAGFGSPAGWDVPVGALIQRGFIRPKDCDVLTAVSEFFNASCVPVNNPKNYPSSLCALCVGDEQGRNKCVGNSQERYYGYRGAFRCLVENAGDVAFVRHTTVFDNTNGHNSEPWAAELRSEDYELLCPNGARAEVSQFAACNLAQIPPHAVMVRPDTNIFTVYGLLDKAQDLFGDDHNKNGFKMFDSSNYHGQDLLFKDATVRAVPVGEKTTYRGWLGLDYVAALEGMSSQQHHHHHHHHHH
# Assay info: Octet competition on His-chip CD228; competitor: BA352
# Procedure: CD228 proteins were immobilized on His chips at 10 μg/mL with a threshold of 0.5 nm. The first CD228 antibody (30 μg/mL) was immobilized, and the competitive binding of the second CD228 antibody (30 μg/mL) was analyzed. The Octet 8K system was used to analyze the response of antibody 2 and to determine whether antibody 1 and antibody 2 were in competition. The final competition analysis was conducted using the following calculation method: 1—response value/blank value.
Measured quantity: competition (1-response value/blank value) (%)
Quick note: give the figure in %, leave out the unit.

The examples below pair each entry with its known result.
Binder	Result value
CA67 (antibody, human IgG1, kappa, V domains shown, Intact IgG1) VH: EVQLVESGGGVVQPGRSLRLSCAASGFTFSSYAMHWVRQAPGKGLEWVAVISYDGSNKYYADSVKGRFTISRDNSKNTLYLQMNSLRAEDTAVYYCARDVYHYGSRSPYYYGMDVWGQGTTVTVSS VL: DIQMTQSPSSLSASVGDRVTITCRASQAISNYLAWYQQKPGKVPKLLIYAASTLHPGVPSRFSGSGSGTDFTLTISSLQPEDVATYYCQKYNSAPFTFGPGTKVDIKR	-8
CA185 (antibody, human IgG1, kappa, V domains shown, Intact IgG1) VH: EVQLVESGGGVVQPGRSLRLSCAASGFTFSSYAMHWVRQAPGKGLEWVAVISYDGSNKYYADSVKGRFTISRDNSKNTLYLQMNSLRAEDTAVYYCAREVPYYYGSGPFDYWGQGTLVTVSS VL: EIVLTQSPGTLSLSPGERATLSCRASQSVSSSSLAWYQQKPGQAPRHLIDGASSRASGIPDRFSGSGSGTDFTLTISRLEPEDFAVYYCQQYGSSYTFGQGTKVDIKR	-17
reference antibody hL49 (antibody, human IgG1, kappa, V domains shown, also called H149; hL49 analogy) VH: QVQLQESGPGLVKPSETLSLTCTVSGDSITSGYWNWIRQPPGKGLEYIGYISDSGITYYNPSLKSRVTISRDTSKNQYSLKLSSVTAADTAVYYCARRTLATYYAMDYWGQGTLVTVSS VL: DFVMTQSPLSLPVTLGQPASISCRASQSLVHSDGNTYLHWYQQRPGQSPRLLIYRVSNRFSGVPDRFSGSGSGTDFTLKISRVEAEDVGVYYCSQSTHVPPTFGQGTKLEIKR	55
CA13 (antibody, human IgG1, kappa, V domains shown, Intact IgG1 from fully human antibody-transgenic mice) VH: EVQLVESGGGVVQPGRSLRLSCAASGFTFSSYAMHWVRQAPGKGLEWVAVISYDGSNKYYADSVKGRFTISRDNSKNTLFLQMNSLRAEDTAVYYCARDVYHYGSRSPYYYGMDVWGQGTTVTVSS VL: DIVMTQSPSSLSASVGDRVTITCRASQGISNYLAWFQQKPGKVPKLLIYAASTLQSGVPSRFSGSGSGTDFTLTISSLQPEDVATYYCQKYNSAPFTFGPGTKVDIKR	-9
CA518 (antibody, human IgG1, kappa, V domains shown, Intact IgG1) VH: EVQLVESGGGVVQPGRSLRLSCAASGFTFSSYAMHWVRQAPGKGLEWVAVISYDGSNKYHADSVKGRFTISRDNSKNTLFLQMNSLRAEDTAVYYCVRDVYHYGSRSPYYYGMDVWGQGTTVTVSS VL: DIQMTQSPSSVSASVGDRVTITCRASQGISSWLAWYQQKPGKAPKLLIYAASSLQSGVPSRFSGSGSGTDFTLTISSLQPEDVATYYCQKYNSAPFTFGPGTKVDIKR	-5

Now turn to the next binder.
Request: competition (1-response value/blank value) lookup needed for BA352 (antibody, human IgG1, kappa, V domains shown, Intact IgG1) VH: EVQLVESGGGVVQPGRSLRLSCAASGFTFSSYAMHWVRQAPGKGLEWVAVISYDGSNKYYADSVKGRFTISRDNSKNTLYLQMNSLRAEDTAVYYCARGPYLAAAGTALTFDIWGQGTMVTVSS VL: DIQMTQSPSAMSASVGDRVTITCRASQGINNYLAWFQQKPGKVPKRLIYAASSLQSGVPSRFSGSGSGTEFTLTISSLQPEDFATYYCLQHNSYPFTFGPGTKVDIKR , thanks.
Result: 94

Where do the numbers come from? From patent US20250121082A1.
